# study system: purified AcpS of S. pneumoniae (Streptococcus pneumoniae, UniProt P0A2W7)
# Construct: made in house; host or cells: E. coli BL21 (pLysS)/pRBP-19 (pET-11a)
# Sequence (P0A2W7 whole entry): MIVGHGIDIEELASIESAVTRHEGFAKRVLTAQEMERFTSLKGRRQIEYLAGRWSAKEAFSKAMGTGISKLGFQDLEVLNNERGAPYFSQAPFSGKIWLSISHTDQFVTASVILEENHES
# experimental protocol: HPLC-based AcpS enzyme assay (conversion of apo-ACP to holo-ACP)
# Type: biochemical
# measurement setup: Ki, inhibition of AcpS activity with respect to CoA, various CoA concentrations, fixed apo-ACP 1.0 μM, 3.7 nM AcpS; Dixon plot FIG. 7C
parameter: Ki (µM)
A number alone suffices; assume µM.

Entry Nc1ncnc2c1ncn2[C@@H]1O[C@H](COP(=O)(O)O)[C@@H](OP(=O)(O)O)[C@H]1O [3′,5′-ADP, 3′,5′-adenosine diphosphate] ; Ki = 6

Reference source for all entries: patent US20030068802A1
